# assay-target: T1, human IgE with the M1′ sequence (long form of membrane IgE) expressed on transduced BJAB or Daudi cells (human, UniProt P01854 116-546)
# T1 construct: Full-length heavy and light chains of the U266 IgE B cell receptor, retrovirally expressed; also called IgE/M1′; IgE-M1′
# T1 sequence (P01854 116-546 I515L limits assumed): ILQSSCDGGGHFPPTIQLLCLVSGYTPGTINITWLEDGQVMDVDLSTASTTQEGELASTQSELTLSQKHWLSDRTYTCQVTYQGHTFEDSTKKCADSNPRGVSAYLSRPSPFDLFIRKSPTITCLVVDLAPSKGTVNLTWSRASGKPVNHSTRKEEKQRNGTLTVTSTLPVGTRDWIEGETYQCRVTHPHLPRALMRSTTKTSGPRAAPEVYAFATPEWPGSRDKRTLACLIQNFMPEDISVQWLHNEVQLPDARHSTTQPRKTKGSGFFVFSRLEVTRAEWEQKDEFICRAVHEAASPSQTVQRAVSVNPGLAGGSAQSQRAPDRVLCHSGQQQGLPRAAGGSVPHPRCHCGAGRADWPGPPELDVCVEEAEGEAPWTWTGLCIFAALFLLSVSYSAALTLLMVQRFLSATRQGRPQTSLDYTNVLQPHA
# procedure-text: Scatchard analysis on cells expressing human IgE/M1′
pKd: −log10 of the molar value.
Recorded pKd values for a group of binders are listed next.

binder	pKd
humanized anti-IgE/M1′ antibody 26A11.v14 (antibody, V domains shown, produced as IgG) VH: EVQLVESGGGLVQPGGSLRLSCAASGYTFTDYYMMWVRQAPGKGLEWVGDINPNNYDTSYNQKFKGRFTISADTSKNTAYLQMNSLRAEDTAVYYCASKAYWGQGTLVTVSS VL: DIQMTQSPSSLSASVGDRVTITCRSSQDISQSLNWYQQKPGKAPKLLIYSTSRLHSGVPSRFSGSGSGTDFTLTISSLQPEDFATYYCQQGHTLPWTFGQGTKVEIKR	8.82
murine anti-IgE/M1′ antibody 47H4 (antibody, V domains shown, mIgG1 hybridoma antibody; also called mu47H4; 47H4 mIgG1) VH: EVKLVESGGGLVQPGGSRKLSCAASGFTFSDYGMAWVRQAPGKGPEWVAFISDLAYTIYYADTVTGRFTISRENAKNTLYLEMSSLRSEDTALYYCARDNWDAMDYWGQGTSVTVSS VL: DIVLTQTPLSLPVSLGDQASISCRSSQSLVHNNGNTYLHWYLQKPGQSPKLLIYKVSNRFSGVPDRFSGSGSGTDFTLKISRLEAEDLGVYFCSQNTLVPWTFGGGTKVEIKR	9.10
humanized anti-IgE/M1′ antibody 47H4.v2 (antibody, V domains shown, produced as IgG) VH: EVQLVESGGGLVQPGGSLRLSCAASGFTFSDYGMAWVRQAPGKGLEWVAFISDLAYTIYYADTVTGRFTISRDNSKNTLYLQMNSLRAEDTAVYYCARDNWDAMDYWGQGTLVTVSS VL: DIQMTQSPSSLSASVGDRVTITCRSSQSLVHNNANTYLHWYQQKPGKAPKLLIYKVSNRFSGVPSRFSGSGSGTDFTLTISSLQPEDFATYYCSQNTLVPWTFGQGTKVEIKR	9.27
humanized anti-IgE/M1′ antibody 26A11.v6 (antibody, V domains shown, huIgG1; also called 26A11v6 huIgG1) VH: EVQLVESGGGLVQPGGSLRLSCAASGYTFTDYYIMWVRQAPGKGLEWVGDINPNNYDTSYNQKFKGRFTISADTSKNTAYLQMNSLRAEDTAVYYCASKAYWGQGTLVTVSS VL: DIQMTQSPSSLSASVGDRVTITCRSSQDISNYLNWYQQKPGKAPKLLIYSTSRLHSGVPSRFSGSGSGTDFTLTISSLQPEDFATYYCQQGHTLPWTFGQGTKVEIKR	8.73

These data points were gathered from patent US20120149881A1.
